Molecular target: UniProt P08912
Sequence (P08912 whole entry): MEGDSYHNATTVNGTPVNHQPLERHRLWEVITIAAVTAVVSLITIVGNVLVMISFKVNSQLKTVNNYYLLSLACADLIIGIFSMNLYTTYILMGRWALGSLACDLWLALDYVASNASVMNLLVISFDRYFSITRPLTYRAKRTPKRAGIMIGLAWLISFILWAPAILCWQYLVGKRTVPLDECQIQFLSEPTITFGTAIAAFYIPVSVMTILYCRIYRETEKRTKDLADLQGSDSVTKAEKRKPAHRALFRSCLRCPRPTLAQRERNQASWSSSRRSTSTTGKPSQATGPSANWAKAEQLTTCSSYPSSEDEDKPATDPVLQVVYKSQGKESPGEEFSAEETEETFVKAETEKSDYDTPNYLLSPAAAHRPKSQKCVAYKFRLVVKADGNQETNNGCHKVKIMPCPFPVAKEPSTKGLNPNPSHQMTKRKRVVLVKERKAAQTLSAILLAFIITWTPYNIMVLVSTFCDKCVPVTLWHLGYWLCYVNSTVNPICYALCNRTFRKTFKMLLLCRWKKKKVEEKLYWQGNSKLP
Test: Antagonist activity at human recombinant muscarinic M5 receptor expressed in CHO cells co-transfected with Gqi5 in presence of EC80 acetylcholine by calcium mobilization assay
Reported values of IC50 for individual entries
Output should be the measured figure followed by the unit it is expressed in.

molecularString | IC50
C[C@H]1CCCCN1c1ccc(N2CCN(S(=O)(=O)c3ccccc3Cl)CC2)nn1 | 6.5 µM

Alright, here's another compound for you.
**Q:** Entry under review: `Cc1noc(C)c1S(=O)(=O)N1CCN(c2ccc(N3CCCC(C)(C)C3)nn2)CC1` . Reported IC50?
**A:** 1.03 µM
